experimental.details: Cyclodextrin-AOL solubility diagrams
Type: physicochemical
assay.conditions: aqueous cyclodextrin solution, 30 °C, aqueous with cosolvent or surfactant or cyclodextrin, thermodynamic from solid, HP-β-CD 5% (w/w), 30° C.; read-out: AOL solubility
observable: solubility at 4 h

In: Note down solubility at 4 h recorded for COc1ccc(-c2cc(=S)ss2)cc1
Out: 51.4 µg/mL

---

experimental.details: Cyclodextrin-AOL solubility diagrams
Format: physicochemical
assay.conditions: aqueous cyclodextrin solution, 25 °C, aqueous with cosolvent or surfactant or cyclodextrin, thermodynamic from solid, HP-β-CD 40% (w/w), 25° C.; read-out: AOL solubility
Text: A cyclodextrin-AOL solubility diagram would reveal the profile of the solubility curve of the AOL depending on the concentration of the cyclodextrin. The principle of this method is to add an excess of AOL to cyclodextrin solutions of increasing concentration, then to measure the amount of solubilized AOL. […] The solubility of AOL in each test solution was quantified by HPLC as detailed in Example 2.
observable: solubility at 4 h (µg/mL)
Form entry: value (µg/mL) — number only.

In: Input COc1ccc(-c2cc(=S)ss2)cc1 , output reported solubility at 4 h.
Out: 418

---

experimental.details: Solubility testing in buffer containing media
Assay type: physicochemical
assay.conditions: buffered aqueous SBE-β-CD medium, pH 7.5, aqueous with cosolvent or surfactant or cyclodextrin, SBE-β-CD 10.0% (w/w), Phosphate 7.5 (100 μM), room temperature; read-out: AOL solubility
observable: solubility (µg/mL)
Number only, in µg/mL; omit the unit.

In: Quick one: give measured solubility for COc1ccc(-c2cc(=S)ss2)cc1
Out: 170

---

experimental.details: Co-solvent addition: AOL solubility
Assay type: physicochemical
assay.conditions: aqueous SBE-β-CD solution, aqueous with cosolvent or surfactant or cyclodextrin, thermodynamic from solid, SBE-β-CD 20% (w/w), PVP 12PF 2.0% (w/w)
observable: solubility at 4 h (µg/mL)
State the answer as a number, implicitly in µg/mL.

In: Tell me its solubility at 4 h given COc1ccc(-c2cc(=S)ss2)cc1 as the entry.
Out: 371

---

experimental.details: Co-solvent addition: AOL solubility
Type: physicochemical
assay.conditions: aqueous HP-β-CD solution, aqueous with cosolvent or surfactant or cyclodextrin, thermodynamic from solid, HP-β-CD 30% (w/w), Tween 80 2% (w/w)
observable: solubility at 4 h (µg/mL)
Write the answer as a number in µg/mL, unit excluded.

In: Complete the entry with solubility at 4 h for COc1ccc(-c2cc(=S)ss2)cc1 [AOL]
Out: 426

---

experimental.details: Cyclodextrin-AOL solubility diagrams
Format: physicochemical
assay.conditions: aqueous SBE-β-CD solution, 4 °C, aqueous with cosolvent or surfactant or cyclodextrin, thermodynamic from solid, SBE-β-CD 20% (w/w), 20° C. followed by 48 hours at 4° C.
Text: A cyclodextrin-AOL solubility diagram would reveal the profile of the solubility curve of the AOL depending on the concentration of the cyclodextrin. The principle of this method is to add an excess of AOL to cyclodextrin solutions of increasing concentration, then to measure the amount of solubilized AOL. […] The solubility of AOL in each test solution was quantified by HPLC as detailed in Example 2.
observable: solubility (µg/mL)
Answer format: numeric, µg/mL implied, no suffix.

In: Fill in solubility for record COc1ccc(-c2cc(=S)ss2)cc1
Out: 165

---

experimental.details: Co-solvent addition: AOL solubility
Type: physicochemical
assay.conditions: aqueous SBE-β-CD solution, aqueous with cosolvent or surfactant or cyclodextrin, thermodynamic from solid, SBE-β-CD 30% (w/w), PVP 12PF 2.0% (w/w)
Procedure: SBE-β-CD compatible excipients, namely polyethylene glycol and polysorbate (Tween), were evaluated for their AOL aqueous solubilizing power. Screening was carried out in same conditions as that of solubilization screening by cyclodextrins (see Example 3). Briefly, 20% (w/w) solutions of each excipient were prepared. An excess of AOL was added and the solutions were analyzed by HPLC after 4 hours of stirring. […]
observable: solubility at 4 h (µg/mL)
Just the number please, in µg/mL, no unit attached.

In: Entry COc1ccc(-c2cc(=S)ss2)cc1 needs its solubility at 4 h filled in; supply it.
Out: 670

---

experimental.details: Co-solvent addition: AOL solubility
Format: physicochemical
assay.conditions: aqueous SBE-β-CD solution, aqueous with cosolvent or surfactant or cyclodextrin, thermodynamic from solid, SBE-β-CD 30% (w/w), Cremophor 10% (w/w)
Description: SBE-β-CD compatible excipients, namely polyethylene glycol and polysorbate (Tween), were evaluated for their AOL aqueous solubilizing power. Screening was carried out in same conditions as that of solubilization screening by cyclodextrins (see Example 3). Briefly, 20% (w/w) solutions of each excipient were prepared. An excess of AOL was added and the solutions were analyzed by HPLC after 4 hours of stirring. […]
observable: solubility at 4 h
Reply with the number and its unit after it.

In: Specify measured solubility at 4 h for COc1ccc(-c2cc(=S)ss2)cc1 [AOL] .
Out: 814 µg/mL

---

experimental.details: Co-solvent addition: AOL solubility
Format: physicochemical
assay.conditions: aqueous HP-β-CD solution, aqueous with cosolvent or surfactant or cyclodextrin, thermodynamic from solid, HP-β-CD 30% (w/w), Cremophor 10% (w/w)
Method: SBE-β-CD compatible excipients, namely polyethylene glycol and polysorbate (Tween), were evaluated for their AOL aqueous solubilizing power. Screening was carried out in same conditions as that of solubilization screening by cyclodextrins (see Example 3). Briefly, 20% (w/w) solutions of each excipient were prepared. An excess of AOL was added and the solutions were analyzed by HPLC after 4 hours of stirring. […]
observable: solubility at 4 h (µg/mL)
Unit µg/mL implied. Number only.

In: Output measured solubility at 4 h for this item: COc1ccc(-c2cc(=S)ss2)cc1
Out: 642

---

experimental.details: Co-solvent addition: AOL solubility
Assay type: physicochemical
assay.conditions: aqueous HP-β-CD solution, aqueous with cosolvent or surfactant or cyclodextrin, thermodynamic from solid, HP-β-CD 20% (w/w), Cremophor 10% (w/w)
observable: solubility at 4 h
Please append the unit to your numeric answer.

In: Tell me solubility at 4 h reported for COc1ccc(-c2cc(=S)ss2)cc1
Out: 545 µg/mL

---

experimental.details: Cyclodextrin-AOL solubility diagrams
Assay type: physicochemical
assay.conditions: aqueous HP-β-CD solution, 20 °C, aqueous with cosolvent or surfactant or cyclodextrin, thermodynamic from solid, HP-β-CD 2.5% (w/w), 20° C.; read-out: AOL solubility
observable: solubility at 4 h (µg/mL)
Just the number in µg/mL, nothing appended.

In: Indicate its recorded solubility at 4 h; the compound in question is COc1ccc(-c2cc(=S)ss2)cc1
Out: 13.4

---

experimental.details: Cyclodextrin-AOL solubility diagrams
Format: physicochemical
assay.conditions: aqueous HP-β-CD solution, 4 °C, aqueous with cosolvent or surfactant or cyclodextrin, thermodynamic from solid, HP-β-CD 20% (w/w), 20° C. followed by 48 hours at 4° C.
observable: solubility (µg/mL)
Response body: numeric value in µg/mL, unit text excluded.

In: Return reported solubility. Input compound: COc1ccc(-c2cc(=S)ss2)cc1
Out: 109

---

experimental.details: Co-solvent addition: AOL solubility
Format: physicochemical
assay.conditions: aqueous SBE-β-CD solution, aqueous with cosolvent or surfactant or cyclodextrin, thermodynamic from solid, SBE-β-CD 30% (w/w), co-solvent 0% (w/w)
observable: solubility at 4 h (µg/mL)
State the answer as a number, implicitly in µg/mL.

In: Specify reported solubility at 4 h for the compound shown: COc1ccc(-c2cc(=S)ss2)cc1 [AOL]
Out: 685

---

experimental.details: Co-solvent addition: AOL solubility
Type: physicochemical
assay.conditions: aqueous SBE-β-CD solution, aqueous with cosolvent or surfactant or cyclodextrin, thermodynamic from solid, SBE-β-CD 30% (w/w), Tween 80 10% (w/w)
observable: solubility at 4 h (µg/mL)
Response body: numeric value in µg/mL, unit text excluded.

In: Please report the measured solubility at 4 h for COc1ccc(-c2cc(=S)ss2)cc1 [AOL]
Out: 616
